As shown below, each of these molecules has a reported GI50 value.
- System: HCT-15 colon
- test.description: NCI tumour cell line growth inhibition, 48 h

| molecule | GI50 |
| --- | --- |
| CC1CC(C)/C(=N/NC(N)=O)C(C(O)CC2CCC(=O)NC2=O)C1 (stereo not drawn) | 3.39 µM |
| CCC[CH2][Sn]1([CH2]CCC)[O]C(=O)c2cccc(OC)c2[O]1 | 0.698 µM |
| COc1cc2c3c(n(CCCNC(=O)OCC4c5ccccc5-c5ccccc54)c(=O)c2cc1OC)-c1cc2c(cc1C3=O)OCO2 | > 63.2 µM |

###

- Tested on: HCT-15 colon
- test.description: NCI tumour cell line growth inhibition, 48 h
quantity.name: TGI

| compound | test.result |
| --- | --- |
| COc1cc(C2c3[nH]c4ccc(F)cc4c3C[C@H]3COC(=O)N23)cc(OC)c1O (stereo not given in full) | 25.2 µM |
| CC(=O)c1c(O)ccc2c(C)c(C(=O)O)oc12 | > 100 µM |
| COc1ccc(Cn2cnc3cc(C(=O)Nc4cccc5ccccc45)ccc32)c(OC)c1 | > 51.1 µM |
| COC(=O)c1oc2c(O)c(OC)c(Br)cc2c1C | 35.5 µM |
| CC(=O)OCC1OC(n2c3c(cc(C#N)c2=S)CCCCCC3)C(OC(C)=O)C(OC(C)=O)C1OC(C)=O (stereo not given) | > 100 µM |
| Cn1c(=O)c2nc3nnc(C#N)c(N)n3c2n(C)c1=O | > 100 µM |
| COc1ccc(N2CCN(Cc3c(C(C)=O)[n+](=O)c4ccccc4n3[O-])CC2)cc1 | > 100 µM |
| O=C(O)CSc1nnc(CCCCCCCCc2nnc(SCC(=O)O)o2)o1 | > 100 µM |
| O=c1oc2cccnc2n1CCN1CCN(c2ccc(Oc3ccccc3)cc2)CC1 | > 100 µM |
| COc1cc2c(oc(=O)c3cc4ccoc4c(OC)c32)c2cccc(O)c12 | > 100 µM |
| CC(=O)[O-].[Ni].c1ccc(/C(=N\Nc2ccccn2)c2ccccn2)cc1 | 41.1 µM |
| BrCCC[P+](c1ccccc1)(c1ccccc1)c1ccccc1 | > 100 µM |
| CCn1c(-c2ccccc2)nc2c1C(=O)c1ccccc1C2=O | 44.1 µM |
| CS(=O)(=O)Nc1cccc(-c2ccc3c(NC(=O)C4CC4)n[nH]c3c2)c1 | > 25 µM |
| Cc1cc(C)nc(NS(=O)(=O)c2ccc(NNC(=O)c3cccc4c(NNc5ccc(S(=O)(=O)Nc6nc(C)cc(C)n6)cc5)c5ccccc5nc34)cc2)n1 | 36.1 µM |

Data credit: PubChem BioAssay (NCI)
